System: 422866-222-R5-J1-PDC complex spheroids viability;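 note: spheroids exposed to compounds for 7 days; 100% = DMSO vehicle control viability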
Assay: Anticancer human tumor 422866-222-R5-J1-PDC patient-derived pancreatic adenocarcinoma cell line growth inhibition [RAS]
Settings: second compound 0.0949 µM; first compound 1 µM; active compounds read low
assay_readout: viability, T/C (%)
Provide the reading as a plain figure in %.

Looking for the measured viability, T/C of C[C@@H](NC(=O)c1ncnc(N)c1Cl)c1ncc(C(=O)Nc2cc(C(F)(F)F)c(Cl)cn2)s1 + CCn1c(-c2cc(N3CCN(C)CC3)cnc2C(C)OC)c2c3cc(ccc31)-c1csc(n1)CC(NC(=O)C1CC1C)C(=O)N1CCCC(N1)C(=O)OCC(C)(C)C2 , can you help?
19.9

Looking for the measured viability, T/C of NC1c2ccccc2OC12CCN(c1cnc3c(N4CCCc5ncccc54)n[nH]c3n1)CC2 (centres undefined) + CCn1c(-c2cc(N3CCN(C)CC3)cnc2C(C)OC)c2c3cc(ccc31)-c1csc(n1)CC(NC(=O)C1CC1C)C(=O)N1CCCC(N1)C(=O)OCC(C)(C)C2 , can you help?
19.2

Looking for the measured viability, T/C of C[C@@H](NC(=O)c1ncnc(N)c1Cl)c1ncc(C(=O)Nc2cc(C(F)(F)F)c(Cl)cn2)s1 + CCn1c(-c2cccnc2C(C)OC)c2c3cc(ccc31)N1CCOC(CC(NC(=O)C(C(C)C)N(C)C(=O)C3(F)CCN(C(=O)C#CC(C)(C)N(C)C)CC3)C(=O)N3CCCC(N3)C(=O)OCC(C)(C)C2)C1 , can you help?
20.2

Looking for the measured viability, T/C of Cc1nc(N2CCC3(CC2)COC(C)C3N)c(CO)nc1Sc1ccnc(N)c1Cl (centres undefined) + CCn1c(-c2cc(N3CCN(C)CC3)cnc2C(C)OC)c2c3cc(ccc31)-c1csc(n1)CC(NC(=O)C1CC1C)C(=O)N1CCCC(N1)C(=O)OCC(C)(C)C2 , can you help?
17.8
